# Species on record: Homo sapiens
# Experimental protocol: Selectivity ratio of IC50 for human cathepsin L to IC50 for humanized rabbit cathepsin K
Param threshold (700) applies to Ratio IC50; output condition met when value >= threshold, condition not met when value < threshold.

Illustrative cases are given below, each with its answer.
{"Compound": "CC(C)(F)C[C@H](N[C@@H](c1ccc(-c2ccc(S(C)(=O)=O)cc2)cc1)C(F)(F)F)C(=O)NC1CN(C(=O)OC(C)(C)C)CC1=O (stereo partly drawn)", "Cat": "condition not met"}
{"Compound": "CC(C)(F)C[C@H](N[C@@H](c1ccc(-c2ccc(S(C)(=O)=O)cc2)cc1)C(F)(F)F)C(=O)NC1CCN(c2ccccc2)CC1=O (stereo partly drawn)", "Cat": "condition not met"}
{"Compound": "CCOC(=O)N1CCC(NC(=O)[C@H](CC(C)(C)F)N[C@@H](c2ccc(-c3ccc(S(C)(=O)=O)cc3)cc2)C(F)(F)F)C(=O)C1 (stereo partly drawn)", "Cat": "condition met"}
{"Compound": "CC(C)(F)C[C@H](N[C@@H](c1ccc(-c2ccc(S(C)(=O)=O)cc2)cc1)C(F)(F)F)C(=O)NC1CN(C(=O)c2ccccc2)CC1=O (stereo partly drawn)", "Cat": "condition not met"}
{"Compound": "CC(C)(F)C[C@H](N[C@@H](c1ccc(-c2ccc(S(C)(=O)=O)cc2)cc1)C(F)(F)F)C(=O)NC1CCCN(S(C)(=O)=O)CC1=O (stereo partly drawn)", "Cat": "condition not met"}
{"Compound": "CC(C)(F)C[C@H](N[C@@H](c1ccc(-c2ccc(S(C)(=O)=O)cc2)cc1)C(F)(F)F)C(=O)NC1CN(C(=O)NCc2ccccc2)CC1=O (stereo partly drawn)", "Cat": "condition not met"}
{"Compound": "CC(C)(F)C[C@H](N[C@@H](c1ccc(-c2ccc(S(C)(=O)=O)cc2)cc1)C(F)(F)F)C(=O)NC1CN(C(N)=O)CC1=O (stereo partly drawn)", "Cat": "condition not met"}
{"Compound": "CC(C)(F)C[C@H](N[C@@H](c1ccc(-c2ccc(S(C)(=O)=O)cc2)cc1)C(F)(F)F)C(=O)NC1CN(C(=O)Nc2ccccc2)CC1=O (stereo partly drawn)", "Cat": "condition not met"}
{"Compound": "CC(C)(F)C[C@H](N[C@@H](c1ccc(-c2ccc(S(C)(=O)=O)cc2)cc1)C(F)(F)F)C(=O)NC1CCCN(S(=O)(=O)c2ccccn2)CC1=O (stereo in doubt; 9)", "Cat": "condition met"}
{"Compound": "CC(C)(F)C[C@H](N[C@@H](c1ccc(-c2ccc(S(C)(=O)=O)cc2)cc1)C(F)(F)F)C(=O)NC1CCCN(S(=O)(=O)c2cccc[n+]2[O-])CC1=O (stereo partly drawn)", "Cat": "condition met"}

We now examine a further compound.
(Q) Dear colleague, could you confirm whether CC(=O)N1CC(=O)C(NC(=O)[C@H](CC(C)(C)F)N[C@@H](c2ccc(-c3ccc(S(C)(=O)=O)cc3)cc2)C(F)(F)F)C1 (stereo partly drawn) has Ratio IC50 at or above 700?
(A) condition met

====

# Experimental protocol: Terminal half life in rat at 2 to 5 mg/kg, iv
# Type: ADME, organism-based
# Design: dose 2-5 mg/kg, route intravenous
# Run conditions: in vivo, read-out: beta t1/2 (converted)
Measurement kind: half-life (h)
Numbers only, in h.

(Q) For the compound shown here, CC(C)(F)C[C@H](N[C@@H](c1ccc(-c2ccc(S(C)(=O)=O)cc2)cc1)C(F)(F)F)C(=O)NC1CCCN(S(=O)(=O)c2ccccn2)CC1=O (stereo in doubt; 9) , give the reported half-life.
(A) 11

====

# Species on record: Homo sapiens
# Experimental protocol: Selectivity ratio of IC50 for human cathepsin L to IC50 for humanized rabbit cathepsin K
Measurement kind: Ratio IC50
Numbers only.

{"Compound": "CC(C)(F)C[C@H](N[C@@H](c1ccc(-c2ccc(S(C)(=O)=O)cc2)cc1)C(F)(F)F)C(=O)NC1CNCC1=O (stereo partly drawn)", "Ratio IC50": 16}

We now examine a further compound.
(Q) For the compound shown here, CC(C)(F)C[C@H](N[C@@H](c1ccc(-c2ccc(S(C)(=O)=O)cc2)cc1)C(F)(F)F)C(=O)NC1CCN(c2ccccc2S(C)(=O)=O)CC1=O (stereo partly drawn) , give the reported Ratio IC50.
(A) 91

====

Kindly state Ratio IC50 for each of the entries shown.
# Organism: Homo sapiens
# Experimental protocol: Selectivity ratio of IC50 for human cathepsin L to IC50 for humanized rabbit cathepsin K

Sample answers from the record:
{"Molecule": "CC(C)(F)C[C@H](N[C@@H](c1ccc(-c2ccc(S(C)(=O)=O)cc2)cc1)C(F)(F)F)C(=O)NC1CCCN(S(=O)(=O)Cc2ccccc2)CC1=O (stereo partly specified)", "Reported": "> 63"}
{"Molecule": "CC(C)(F)C[C@H](N[C@@H](c1ccc(-c2ccc(S(C)(=O)=O)cc2)cc1)C(F)(F)F)C(=O)NC1CN(S(C)(=O)=O)CC1=O (stereo partly specified)", "Reported": 158}
{"Molecule": "CC(C)(F)C[C@H](N[C@@H](c1ccc(-c2ccc(S(C)(=O)=O)cc2)cc1)C(F)(F)F)C(=O)NC1CCN(S(=O)(=O)c2ccccn2)CC1=O (stereo partly specified)", "Reported": 621}

For every item in the list below, what is its measured Ratio IC50?
1. CC(C)(F)C[C@H](N[C@@H](c1ccc(-c2ccc(S(C)(=O)=O)cc2)cc1)C(F)(F)F)C(=O)NC1CCCNCC1=O (stereo partly specified)
2. COC(=O)NCC(=O)CNC(=O)[C@H](CC(C)(C)F)N[C@@H](c1ccc(-c2ccc(S(C)(=O)=O)cc2)cc1)C(F)(F)F
3. CC(C)(F)C[C@H](N[C@@H](c1ccc(-c2ccc(S(C)(=O)=O)cc2)cc1)C(F)(F)F)C(=O)NC1CN(C(=O)NS(=O)(=O)c2ccccc2)CC1=O (stereo partly specified)

(A)
236
152
> 147

====

Kindly state Ratio IC50 for each of the entries shown.
# Species: Homo sapiens
# Experimental protocol: Selectivity ratio of IC50 for human cathepsin B to IC50 for humanized rabbit cathepsin K
One number for each entry.

Sample answers from the record:
{"Molecule": "CC(C)(F)C[C@H](N[C@@H](c1ccc(-c2ccc(S(C)(=O)=O)cc2)cc1)C(F)(F)F)C(=O)NC1CN(C(N)=O)CC1=O (stereo partly specified)", "Ratio IC50": 355}
{"Molecule": "CC(C)(F)C[C@H](N[C@@H](c1ccc(-c2ccc(S(C)(=O)=O)cc2)cc1)C(F)(F)F)C(=O)NC1CCCNCC1=O (stereo partly specified)", "Ratio IC50": 303}

We now examine a further molecule.
(Q) For the molecule shown here, CC(C)(F)C[C@H](N[C@@H](c1ccc(-c2ccc(S(C)(=O)=O)cc2)cc1)C(F)(F)F)C(=O)NC1CNCC1=O (stereo partly specified) , give the reported Ratio IC50.
(A) 485

====

# Experimental protocol: Clearance in rat at 2 to 5 mg/kg, iv
# Format: ADME, organism-based
# Set-up: dose 2-5 mg/kg, route intravenous
# Run conditions: in vivo
Measurement kind: clearance (mL/min/kg)
One number for each entry, in mL/min/kg.

{"Compound": "COC(=O)N1CC(=O)C(NC(=O)[C@H](CC(C)(C)F)N[C@@H](c2ccc(-c3ccc(S(C)(=O)=O)cc3)cc2)C(F)(F)F)C1 (stereo partly drawn)", "Unit symbol": "mL/min/kg", "clearance": 40}
{"Compound": "CC(C)(F)C[C@H](N[C@@H](c1ccc(-c2ccc(S(C)(=O)=O)cc2)cc1)C(F)(F)F)C(=O)NC1CCCN(S(=O)(=O)c2ccccn2)CC1=O (stereo in doubt; 9)", "Unit symbol": "mL/min/kg", "clearance": 46}

We now examine a further compound.
(Q) For the compound shown here, CC(C)(F)C[C@H](N[C@@H](c1ccc(-c2ccc(S(C)(=O)=O)cc2)cc1)C(F)(F)F)C(=O)NC1(C#N)CC1 [ODANACATIB] , give the reported clearance.
(A) 2

====

# Species on record: Homo sapiens
# Experimental protocol: Selectivity ratio of IC50 for human cathepsin S to IC50 for humanized rabbit cathepsin K
Kindly state Ratio IC50 for each of the entries shown.
Numbers only.

Sample answers from the record:
{"Compound": "CC(C)(F)C[C@H](N[C@@H](c1ccc(-c2ccc(S(C)(=O)=O)cc2)cc1)C(F)(F)F)C(=O)NC1CCN(c2ccccc2S(C)(=O)=O)CC1=O (stereo partly drawn)", "Measurement kind": "Ratio IC50", "Reported": 3.9}
{"Compound": "CC(C)(F)C[C@H](N[C@@H](c1ccc(-c2ccc(S(C)(=O)=O)cc2)cc1)C(F)(F)F)C(=O)NC1CCCN(S(=O)(=O)Cc2ccccc2)CC1=O (stereo partly drawn)", "Measurement kind": "Ratio IC50", "Reported": 8}
{"Compound": "CC(C)(F)C[C@H](N[C@@H](c1ccc(-c2ccc(S(C)(=O)=O)cc2)cc1)C(F)(F)F)C(=O)NC1CN(C(=O)Nc2ccccc2)CC1=O (stereo partly drawn)", "Measurement kind": "Ratio IC50", "Reported": 104}
{"Compound": "CC(=O)N1CC(=O)C(NC(=O)[C@H](CC(C)(C)F)N[C@@H](c2ccc(-c3ccc(S(C)(=O)=O)cc3)cc2)C(F)(F)F)C1 (stereo partly drawn)", "Measurement kind": "Ratio IC50", "Reported": 604}
{"Compound": "CC(C)(F)C[C@H](N[C@@H](c1ccc(-c2ccc(S(C)(=O)=O)cc2)cc1)C(F)(F)F)C(=O)NC1CCCN(S(=O)(=O)c2ccccn2)CC1=O (stereo in doubt; 9)", "Measurement kind": "Ratio IC50", "Reported": 45}

For every item in the list below, what is its measured Ratio IC50?
1. CC(C)(F)C[C@H](N[C@@H](c1ccc(-c2ccc(S(C)(=O)=O)cc2)cc1)C(F)(F)F)C(=O)NC1CCN(S(=O)(=O)c2ccccn2)CC1=O (stereo partly drawn)
2. CC(C)(F)C[C@H](N[C@@H](c1ccc(-c2ccc(S(C)(=O)=O)cc2)cc1)C(F)(F)F)C(=O)NC1CCCN(S(C)(=O)=O)CC1=O (stereo partly drawn)
3. CC(C)(F)C[C@H](N[C@@H](c1ccc(-c2ccc(S(C)(=O)=O)cc2)cc1)C(F)(F)F)C(=O)NC1CNCC1=O (stereo partly drawn)
4. CC(C)(F)C[C@H](N[C@@H](c1ccc(-c2ccc(S(C)(=O)=O)cc2)cc1)C(F)(F)F)C(=O)NC1CCCN(S(=O)(=O)c2cccc[n+]2[O-])CC1=O (stereo partly drawn)
5. CCOC(=O)N1CCCC(NC(=O)[C@H](CC(C)(C)F)N[C@@H](c2ccc(-c3ccc(S(C)(=O)=O)cc3)cc2)C(F)(F)F)C(=O)C1 (stereo partly drawn)

(A)
1. 22
2. 114
3. 159
4. 33
5. 46

For every item in the list below, what is its measured Ratio IC50?
1. CC(C)(F)C[C@H](N[C@@H](c1ccc(-c2ccc(S(C)(=O)=O)cc2)cc1)C(F)(F)F)C(=O)NC1CCCNCC1=O (stereo partly drawn)
2. CC(C)(F)C[C@H](N[C@@H](c1ccc(-c2ccc(S(C)(=O)=O)cc2)cc1)C(F)(F)F)C(=O)NC1CCN(c2ccccc2)CC1=O (stereo partly drawn)
3. CC(C)(F)C[C@H](N[C@@H](c1ccc(-c2ccc(S(C)(=O)=O)cc2)cc1)C(F)(F)F)C(=O)NC1CCCN(S(=O)(=O)c2ccccn2)CC1=O (stereo in doubt; 11)

(A)
1: 179; 2: 8; 3: 35
